hCA I (Homo sapiens): reported Ki for various compounds.
Sequence (P00915 whole entry): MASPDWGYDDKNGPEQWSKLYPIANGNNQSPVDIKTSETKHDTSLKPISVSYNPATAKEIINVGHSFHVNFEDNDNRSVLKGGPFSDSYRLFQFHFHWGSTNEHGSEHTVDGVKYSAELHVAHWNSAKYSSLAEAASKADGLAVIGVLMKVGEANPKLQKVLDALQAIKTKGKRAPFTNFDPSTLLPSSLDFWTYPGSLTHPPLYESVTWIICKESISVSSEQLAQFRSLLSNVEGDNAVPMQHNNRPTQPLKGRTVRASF
READOUT_NAME: Ki (nM)

COMPOUND: NS(=O)(=O)c1cccc(Nc2ccnc3ccc(Cl)cc23)c1 [11c]
Ki (nM): 442
//
COMPOUND: NS(=O)(=O)c1ccccc1Nc1ccnc2cc(C(F)(F)F)cc(C(F)(F)F)c12
Ki (nM): 1560
//
COMPOUND: COc1ccc2nccc(Nc3ccc(S(N)(=O)=O)cc3)c2c1 [13b]
Ki (nM): 92.1
//
COMPOUND: COc1ccc2nccc(Nc3cccc(S(N)(=O)=O)c3)c2c1 [11b]
Ki (nM): 258
//
COMPOUND: Cc1ccc2nccc(Nc3ccc(S(N)(=O)=O)cc3)c2c1 [13a]
Ki (nM): 78.4

I: NS(=O)(=O)c1cccc(Nc2ccnc3cc(C(F)(F)F)cc(C(F)(F)F)c23)c1 [11d]
II: COc1ccc2nccc(Nc3ccc(C)c(S(N)(=O)=O)c3)c2c1 [11f]
Qu. I or II : whose Ki is greater? # reply format: chosen label
Ans. II
